target: panel of more than 300 wild-type and mutant kinases (313 kinase panel) (Homo sapiens); experiment: Kinase profiling in a biochemical assay panel (mobility shift assays and ELISA), %-inhibition at 1 μM; selectivity entropy; details: kinase FER; compound at 1 μM
Recorded %-inhibition of FER by entry
// return numeric value only (unit: %, not printed)

Give its %-inhibition of FER value. Item: CC(=O)Nc1cccc(-n2c(=O)n(C3CC3)c(=O)c3c(Nc4ccc(I)cc4F)n(C)c(=O)c(C)c32)c1 4.28

Give its %-inhibition of FER value. Item: Cc1ccc(C(=O)Nc2ccc(CN3CCN(C)CC3)c(C(F)(F)F)c2)cc1C#Cc1cnc2cccnn12 89

Give its %-inhibition of FER value. Item: CO[C@H]1C[C@@H]2CC[C@@H](C)[C@@](O)(O2)C(=O)C(=O)N2CCCC[C@H]2C(=O)O[C@H]([C@H](C)C[C@@H]2CC[C@@H](OCCO)[C@H](OC)C2)CC(=O)[C@H](C)/C=C(\C)[C@@H](O)[C@@H](OC)C(=O)[C@H](C)C[C@H](C)/C=C/C=C/C=C/1C -0.138

###

Recorded %-inhibition of WNK2 by entry
target: panel of more than 300 wild-type and mutant kinases (313 kinase panel) (Homo sapiens); test: Kinase profiling in a biochemical assay panel (mobility shift assays and ELISA), %-inhibition at 1 μM; selectivity entropy; conditions: kinase WNK2; compound at 1 μM
// return numeric value only (unit: %, not printed)

The cases that follow already have their %-inhibition of WNK2 on record.
compound	assay system	%-inhibition of WNK2 (%)
CCCS(=O)(=O)Nc1ccc(F)c(C(=O)c2c[nH]c3ncc(-c4ccc(Cl)cc4)cc23)c1F	panel of more than 300 wild-type and mutant kinases (313 kinase panel) (Homo sapiens)	13
CC(=O)Nc1cccc(-n2c(=O)n(C3CC3)c(=O)c3c(Nc4ccc(I)cc4F)n(C)c(=O)c(C)c32)c1	panel of more than 300 wild-type and mutant kinases (313 kinase panel) (Homo sapiens)	1.45
O=S(=O)(c1cccc2cnccc12)N1CCCNCC1	panel of more than 300 wild-type and mutant kinases (313 kinase panel) (Homo sapiens)	1.45

Give its %-inhibition of WNK2 value. Item: Cc1nc(Nc2ncc(C(=O)Nc3c(C)cccc3Cl)s2)cc(N2CCN(CCO)CC2)n1 20

Give its %-inhibition of WNK2 value. Item: COc1cc2c(Nc3ccc(Br)cc3F)ncnc2cc1OCC1CCN(C)CC1 -4.29

###

target: panel of more than 300 wild-type and mutant kinases (313 kinase panel) (Homo sapiens, UniProt Q9HC98); experiment: Kinase profiling in a biochemical assay panel (mobility shift assays and ELISA), %-inhibition at 1 μM; selectivity entropy; settings: kinase NEK6; 1 μM
experimental endpoint: %-inhibition of NEK6 (%)
// return numeric value only (unit: %, not printed)

The cases that follow already have their %-inhibition of NEK6 on record.
molecule	experimental endpoint	recorded number
CO[C@H]1C[C@@H]2CC[C@@H](C)[C@@](O)(O2)C(=O)C(=O)N2CCCC[C@H]2C(=O)O[C@H]([C@H](C)C[C@@H]2CC[C@@H](OC(=O)C(C)(CO)CO)[C@H](OC)C2)CC(=O)[C@H](C)/C=C(\C)[C@@H](O)[C@@H](OC)C(=O)[C@H](C)C[C@H](C)/C=C/C=C/C=C/1C	%-inhibition of NEK6	-3.31
C[C@@H](Oc1cc(-c2cnn(C3CCNCC3)c2)cnc1N)c1c(Cl)ccc(F)c1Cl	%-inhibition of NEK6	-2.72

Now for another entry.
Give its %-inhibition of NEK6 value. Item: CNC(=O)c1cc(Oc2ccc(NC(=O)Nc3ccc(Cl)c(C(F)(F)F)c3)c(F)c2)ccn1 -6.48

###

biological target: panel of more than 300 wild-type and mutant kinases (313 kinase panel) (Homo sapiens, UniProt Q9P1W9); assay: Kinase profiling in a biochemical assay panel (mobility shift assays and ELISA), %-inhibition at 1 μM; selectivity entropy; conditions: kinase PIM2; 1 μM
experimental endpoint: %-inhibition of PIM2 (%)
// return numeric value only (unit: %, not printed)

The cases that follow already have their %-inhibition of PIM2 on record.
compound	experimental endpoint	recorded number
C[C@@H](Oc1cc(-c2cnn(C3CCNCC3)c2)cnc1N)c1c(Cl)ccc(F)c1Cl [crizotinib]	%-inhibition of PIM2	-5.28
CC(=O)Nc1cccc(-n2c(=O)n(C3CC3)c(=O)c3c(Nc4ccc(I)cc4F)n(C)c(=O)c(C)c32)c1 [trametinib]	%-inhibition of PIM2	-4
COc1cc(Nc2c(C#N)cnc3cc(OCCCN4CCN(C)CC4)c(OC)cc23)c(Cl)cc1Cl [bosutinib]	%-inhibition of PIM2	-12
CC(C)(C)c1nc(-c2cccc(NS(=O)(=O)c3c(F)cccc3F)c2F)c(-c2ccnc(N)n2)s1 [dabrafenib]	%-inhibition of PIM2	0.238

Give its %-inhibition of PIM2 value. Item: O=S(=O)(c1cccc2cnccc12)N1CCCNCC1 [fasudil] -1.66

Give its %-inhibition of PIM2 value. Item: Cc1cn(-c2cc(NC(=O)c3ccc(C)c(Nc4nccc(-c5cccnc5)n4)c3)cc(C(F)(F)F)c2)cn1 [nilotinib] 7

Give its %-inhibition of PIM2 value. Item: Cc1ccc(C(=O)Nc2ccc(CN3CCN(C)CC3)c(C(F)(F)F)c2)cc1C#Cc1cnc2cccnn12 [ponatinib] 3.41

Give its %-inhibition of PIM2 value. Item: CS(=O)(=O)CCNCc1ccc(-c2ccc3ncnc(Nc4ccc(OCc5cccc(F)c5)c(Cl)c4)c3c2)o1 [lapatinib] 0.254

Give its %-inhibition of PIM2 value. Item: CO[C@H]1C[C@@H]2CC[C@@H](C)[C@@](O)(O2)C(=O)C(=O)N2CCCC[C@H]2C(=O)O[C@H]([C@H](C)C[C@@H]2CC[C@@H](OC(=O)C(C)(CO)CO)[C@H](OC)C2)CC(=O)[C@H](C)/C=C(\C)[C@@H](O)[C@@H](OC)C(=O)[C@H](C)C[C@H](C)/C=C/C=C/C=C/1C [temsirolimus] -6

Give its %-inhibition of PIM2 value. Item: COc1cc2nccc(Oc3ccc(NC(=O)C4(C(=O)Nc5ccc(F)cc5)CC4)cc3)c2cc1OC [cabozantinib] -12

Give its %-inhibition of PIM2 value. Item: COc1cc2c(Nc3ccc(Br)cc3F)ncnc2cc1OCC1CCN(C)CC1 [vandetanib] -6.49

Give its %-inhibition of PIM2 value. Item: CO[C@H]1C[C@@H]2CC[C@@H](C)[C@@](O)(O2)C(=O)C(=O)N2CCCC[C@H]2C(=O)O[C@H]([C@H](C)C[C@@H]2CC[C@@H](OCCO)[C@H](OC)C2)CC(=O)[C@H](C)/C=C(\C)[C@@H](O)[C@@H](OC)C(=O)[C@H](C)C[C@H](C)/C=C/C=C/C=C/1C [everolimus] -7

Give its %-inhibition of PIM2 value. Item: Cc1nc(Nc2ncc(C(=O)Nc3c(C)cccc3Cl)s2)cc(N2CCN(CCO)CC2)n1 [dasatinib] 5

Give its %-inhibition of PIM2 value. Item: CCCS(=O)(=O)Nc1ccc(F)c(C(=O)c2c[nH]c3ncc(-c4ccc(Cl)cc4)cc23)c1F [vemurafenib] -2

Give its %-inhibition of PIM2 value. Item: Cc1ccc(Nc2nccc(N(C)c3ccc4c(C)n(C)nc4c3)n2)cc1S(N)(=O)=O [pazopanib] -4

Give its %-inhibition of PIM2 value. Item: N#CC[C@H](C1CCCC1)n1cc(-c2ncnc3[nH]ccc23)cn1 [ruxolitinib] -4

Give its %-inhibition of PIM2 value. Item: CNC(=O)c1cc(Oc2ccc(NC(=O)Nc3ccc(Cl)c(C(F)(F)F)c3)c(F)c2)ccn1 [regorafenib] -9

###

Recorded %-inhibition of EPHB4 by entry
Target: panel of more than 300 wild-type and mutant kinases (313 kinase panel) (Homo sapiens, UniProt P54760)
Sequence (P54760 16-987): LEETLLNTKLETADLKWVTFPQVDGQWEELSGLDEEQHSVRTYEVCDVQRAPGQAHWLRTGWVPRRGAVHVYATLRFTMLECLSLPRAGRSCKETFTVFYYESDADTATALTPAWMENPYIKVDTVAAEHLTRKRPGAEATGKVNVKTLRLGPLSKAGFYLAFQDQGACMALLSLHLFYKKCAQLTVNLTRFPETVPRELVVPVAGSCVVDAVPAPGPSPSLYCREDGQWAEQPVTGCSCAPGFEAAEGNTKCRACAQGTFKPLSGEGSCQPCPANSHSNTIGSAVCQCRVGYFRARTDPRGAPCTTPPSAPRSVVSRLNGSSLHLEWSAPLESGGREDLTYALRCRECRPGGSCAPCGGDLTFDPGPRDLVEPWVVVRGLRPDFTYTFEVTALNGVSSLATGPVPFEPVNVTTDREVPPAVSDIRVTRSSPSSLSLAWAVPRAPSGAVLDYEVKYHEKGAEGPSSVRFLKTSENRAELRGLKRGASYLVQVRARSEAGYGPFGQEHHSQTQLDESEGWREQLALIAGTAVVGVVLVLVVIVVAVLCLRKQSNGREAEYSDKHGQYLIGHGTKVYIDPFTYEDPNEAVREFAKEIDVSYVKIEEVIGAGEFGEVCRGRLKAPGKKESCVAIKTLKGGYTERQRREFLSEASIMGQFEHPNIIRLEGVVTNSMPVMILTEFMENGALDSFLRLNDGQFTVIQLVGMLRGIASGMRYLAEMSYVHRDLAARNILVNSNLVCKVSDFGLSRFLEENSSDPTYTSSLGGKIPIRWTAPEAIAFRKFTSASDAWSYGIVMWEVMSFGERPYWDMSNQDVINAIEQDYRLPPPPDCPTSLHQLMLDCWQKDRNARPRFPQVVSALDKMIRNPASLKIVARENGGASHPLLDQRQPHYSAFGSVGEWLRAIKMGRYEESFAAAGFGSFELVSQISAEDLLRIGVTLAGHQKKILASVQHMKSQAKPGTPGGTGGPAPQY
Assay: Kinase profiling in a biochemical assay panel (mobility shift assays and ELISA), %-inhibition at 1 μM; selectivity entropy
Conditions: kinase EPHB4; compound at 1 μM
// return numeric value only (unit: %, not printed)

The cases that follow already have their %-inhibition of EPHB4 on record.
compound	unit abbrev	recorded number
O=S(=O)(c1cccc2cnccc12)N1CCCNCC1	%	-5.34
C[C@@H](Oc1cc(-c2cnn(C3CCNCC3)c2)cnc1N)c1c(Cl)ccc(F)c1Cl	%	83
CCCS(=O)(=O)Nc1ccc(F)c(C(=O)c2c[nH]c3ncc(-c4ccc(Cl)cc4)cc23)c1F	%	3.73
CO[C@H]1C[C@@H]2CC[C@@H](C)[C@@](O)(O2)C(=O)C(=O)N2CCCC[C@H]2C(=O)O[C@H]([C@H](C)C[C@@H]2CC[C@@H](OCCO)[C@H](OC)C2)CC(=O)[C@H](C)/C=C(\C)[C@@H](O)[C@@H](OC)C(=O)[C@H](C)C[C@H](C)/C=C/C=C/C=C/1C	%	-4.49
N#CC[C@H](C1CCCC1)n1cc(-c2ncnc3[nH]ccc23)cn1	%	0.569

Give its %-inhibition of EPHB4 value. Item: COc1cc(Nc2c(C#N)cnc3cc(OCCCN4CCN(C)CC4)c(OC)cc23)c(Cl)cc1Cl 96

Give its %-inhibition of EPHB4 value. Item: Cc1ccc(Nc2nccc(N(C)c3ccc4c(C)n(C)nc4c3)n2)cc1S(N)(=O)=O 16

Give its %-inhibition of EPHB4 value. Item: COc1cc2nccc(Oc3ccc(NC(=O)C4(C(=O)Nc5ccc(F)cc5)CC4)cc3)c2cc1OC [cabozantinib] 96

Give its %-inhibition of EPHB4 value. Item: CS(=O)(=O)CCNCc1ccc(-c2ccc3ncnc(Nc4ccc(OCc5cccc(F)c5)c(Cl)c4)c3c2)o1 -0.865

Give its %-inhibition of EPHB4 value. Item: Cc1ccc(C(=O)Nc2ccc(CN3CCN(C)CC3)c(C(F)(F)F)c2)cc1C#Cc1cnc2cccnn12 101

Give its %-inhibition of EPHB4 value. Item: CNC(=O)c1cc(Oc2ccc(NC(=O)Nc3ccc(Cl)c(C(F)(F)F)c3)c(F)c2)ccn1 80

Give its %-inhibition of EPHB4 value. Item: CO[C@H]1C[C@@H]2CC[C@@H](C)[C@@](O)(O2)C(=O)C(=O)N2CCCC[C@H]2C(=O)O[C@H]([C@H](C)C[C@@H]2CC[C@@H](OC(=O)C(C)(CO)CO)[C@H](OC)C2)CC(=O)[C@H](C)/C=C(\C)[C@@H](O)[C@@H](OC)C(=O)[C@H](C)C[C@H](C)/C=C/C=C/C=C/1C -9

Give its %-inhibition of EPHB4 value. Item: CC(=O)Nc1cccc(-n2c(=O)n(C3CC3)c(=O)c3c(Nc4ccc(I)cc4F)n(C)c(=O)c(C)c32)c1 -3.38
